Please find below pIC50 measurements for Sentrin-specific protease 1 (Homo sapiens), combined from several publications.
pIC50: −log10 of the molar value.
Endpoint: pIC50

// below: answered compounds
>>> data_value("O=[N+]([O-])c1ccc(C/N=N/c2ccccc2)cc1")
5.14
>>> data_value("COc1ccc(-n2c(O)c3c(c2O)C(C(=O)c2ccccc2)N2CCCC32)cc1 (stereo not drawn)")
4.51
>>> data_value("CCOc1cc(C=c2[nH]c3n(c2=O)CCCCC=3)ccc1O")
5.12
>>> data_value("CCN1C(=O)c2cccc3c(NC(=O)c4cccc(-n5c(O)ccc5O)c4)ccc1c23")
4.75
>>> data_value("CCOC1=CC(=Cc2sc(=O)[nH]c2N)C=CC1=O")
4.96

(a) COc1ccc(-n2c(O)c3c(c2O)C(C(=O)c2ccc(Cl)cc2)N2CCCC32)cc1 (stereo not drawn)
(b) O=C(c1ccccc1)[C@@H]1c2c(c(O)n(-c3ccc(F)cc3)c2O)C2CCCN21 (stereo partly drawn)
(c) CC1(C)CC(=O)C2Sc3ccccc3N=C2C1 (stereo not drawn)
Put the items in order so that reported pIC50 rises from first to last. A ranking is expressed here by listing the labels in the requested order. c, b, a

(A) COc1nccnc1NS(=O)(=O)c1ccc(NC(=S)NC(=O)c2ccc(F)cc2)cc1
(B) N#CC1C(=N)Oc2cc(Nc3ccccc3)ccc2C1c1ccncc1 (stereo not drawn)
(C) O=C(Cc1cccc2ccccc12)NC(NC(=S)Nc1ccccc1Cl)C(Cl)(Cl)Cl (stereo not drawn)
(D) CC(=O)Oc1ccc(-n2c(O)c3c(c2O)C(C(=O)c2ccc(Cl)cc2)N2CCCC32)cc1 (stereo not drawn)
Put the items in order so that reported pIC50 rises from first to last. A ranking is expressed here by listing the labels in the requested order. B, A, C, D
(B: 4.38, A: 4.81, C: 5.06, D: 5.33)

(P) NC(=O)CNC(=O)c1ccc(C(=O)NNC(=O)[C@H]2O[C@@H]2C(=O)N(Cc2cccc3ccccc23)Cc2cccc3ccccc23)cc1
(Q) CN(C)c1ccc(C=NNC(=O)C(=O)CC2=NC3(CCCC3)Cc3ccccc32)cc1
// compare: P vs Q , metric pIC50, want the smaller Pick one; state its label. P

(I) O=C(CNC(=O)c1ccc(CNC(=O)c2cccc(C(=O)O)c2)cc1)COC(=O)c1c2ccccc2cc2ccccc12
(II) COc1ccc(C=Nn2c(O)csc2=S)cc1Br
Which of the two gives a bigger number for pIC50: I or II ? Pick one; state its label. II
